- System: Aeromonas hydrophila
- experimental details: Antibacterial activity against Aeromonas hydrophila by serial broth dilution assay
- Type: functional
Would you mind telling me the reported MIC of each entry?
A number alone suffices; assume µg/mL.

Req: Lookup: MIC / Aeromonas hydrophila / "COc1c(O)cc(O)cc1C/C=C(\C)CC/C=C(\C)CC/C=C(\C)CCC=C(C)C"
Resp: 0.78

Req: Lookup: MIC / Aeromonas hydrophila / "CC(=O)Oc1c(O)cc(O)cc1C/C=C(\C)CC/C=C(\C)CC/C=C(\C)CCC=C(C)C"
Resp: 12.5

###

- Tested on: Aeromonas hydrophila
- experimental details: Antibacterial activity against Aeromonas hydrophila by serial broth dilution assay
- Assay type: functional
measurement name: MIC

Req: Name the reported MIC value associated with the molecule CC(C)=CCC/C(C)=C/CC/C(C)=C/CCC1(C)C=Cc2c(ccc(O)c2O)O1 (stereo not drawn)
Resp: > 100 µg/mL

Req: Name the reported MIC value associated with the molecule "CC(=O)Oc1c(O)ccc(O)c1C/C=C(\C)CC/C=C(\C)CC/C=C(\C)CCC=C(C)C"
Resp: > 100 µg/mL

Req: Name the reported MIC value associated with the molecule "COc1ccc(O)c(O)c1C/C=C(\C)CC/C=C(\C)CC/C=C(\C)CCC=C(C)C"
Resp: > 100 µg/mL

// provenance: ChEMBL document CHEMBL1147303
